System: MDA-MB-231
Assay: NCI tumour cell line growth inhibition, 48 h
Active and inactive are the calls of the source. No stated cut-off is given here; in the data, active = GI50 up to about 1.1 µM and inactive = higher.

{"COMPOUND": "COc1cc(/C=C2\\N=C(c3ccccc3)N(c3nc4cc(C)c(C)cc4s3)C2=O)ccc1O", "GI50": "66.1 µM (inactive)"}
{"COMPOUND": "Nc1nncs1", "GI50": "2320 µM (inactive)"}
{"COMPOUND": "CC(C)c1ccc(/C=C2\\CSCC3=C2N=C2SCC(=O)N2C3c2ccc(C(C)C)cc2)cc1 (stereo unspecified)", "GI50": "> 100 µM (inactive)"}
{"COMPOUND": "COc1ccc(NC(C)=O)cc1N1C(=O)/C(=C\\c2cc(OC)c(OC)c(OC)c2)SC1c1ccccc1 (stereo unspecified)", "GI50": "19.4 µM (inactive)"}
{"COMPOUND": "COC(=O)c1ccccc1C1CN=NC12Cc1ccccc1C2=O (stereo unspecified)", "GI50": "78 µM (inactive)"}
{"COMPOUND": "O=C(NN1C(=O)c2ccccc2C1=O)c1ccccc1Nc1ccccc1C(=O)NN1C(=O)c2ccccc2C1=O", "GI50": "> 100 µM (inactive)"}
{"COMPOUND": "CCOC(=O)C1=C(C)N(CC(C)C)C2(O)C(OC)CC(=O)C3C(=O)N(c4ccccc4)C(=O)C132 (stereo unspecified)", "GI50": "89.1 µM (inactive)"}
{"COMPOUND": "O=C(CBr)N1CCC2(CC1)SSC1(CCN(C(=O)CBr)CC1)S2", "GI50": "2.33 µM (inactive)"}
{"COMPOUND": "O=[N+]([O-])/C(C(Cl)=C(Cl)Cl)=C(/Br)SCc1ccccc1", "GI50": "2.72 µM (inactive)"}
{"COMPOUND": "CCCCSC1=N/C(=C\\c2ccc(N(C)C)cc2)C(Cl)=N1", "GI50": "> 100 µM (inactive)"}
{"COMPOUND": "CCCCCC(O)C1C(=O)OC(C)C(O)/C=C/C=C/C=C/C=C/C=C(\\C)C(O)C(O)C(O)CC(O)CC(O)CC(O)CC(O)CC1O (stereo unspecified)", "GI50": "> 100 µM (inactive)"}
{"COMPOUND": "O=C1C2C(C(=O)N1c1ccccc1)C1(c3ccccc3)CCC2(C(=O)c2ccccc2)O1 (stereo unspecified)", "GI50": "> 10 µM (inactive)"}
{"COMPOUND": "C/C=C(\\C)C(=O)OC1CC(OC(C)=O)C2(C(=O)OC)COC3C2C1(C)C1C2(C(=O)OC)OCC1(C3O)C1(O)C3CC(C4(O)C=COC4O3)C1(C)O2 (stereo unspecified)", "GI50": "> 100 µM (inactive)"}
{"COMPOUND": "CCN1c2ccccc2-n2c(C)nnc2-c2c(-c3ccccc3)n[nH]c21", "GI50": "18.9 µM (inactive)"}
{"COMPOUND": "CC1=Nc2c(N)nc(N)nc2N(C)C1", "GI50": "> 100 µM (inactive)"}
{"COMPOUND": "CN(/N=C/C=N/N(C)C1=NCCCN1)C1=NCCCN1", "GI50": "> 100 µM (inactive)"}
{"COMPOUND": "CCOC(=O)CC(N1CC1)N1CC1", "GI50": "> 10 µM (inactive)"}
{"COMPOUND": "CC1(C)CN(c2ccccc2)C(=O)C1OC(=O)[C@@]1(C)C[C@@H]2C=C[C@H]1C2 (stereo partly specified)", "GI50": "24.5 µM (inactive)"}
{"COMPOUND": "O=c1c2cc(O)c(O)cc2oc2cc(O)c(C3OC(CO)C(O)C(O)C3O)c(O)c12 (stereo unspecified)", "GI50": "> 100 µM (inactive)"}
{"COMPOUND": "CCCCNCCCNCCCNC(=O)c1csc(-c2csc(CCNC(=O)C(NC(=O)C(C)C(O)C(C)NC(=O)C(NC(=O)c3nc(C(CC(N)=O)NCC(N)C(N)=O)nc(N)c3C)C(OC3OC(CO)C(O)C(O)C3OC3OC(CO)C(O)C(OC(N)=O)C3O)c3c[nH]cn3)C(C)O)n2)n1 (stereo unspecified)", "GI50": "30.3 µM (inactive)"}
{"COMPOUND": "Cc1nn(C(=O)c2ccccc2O)c2c1C(c1ccc3ccccc3c1O)SC(=N)N2 (stereo unspecified)", "GI50": "3.05 µM (inactive)"}
{"COMPOUND": "CC1(C)COC(c2cccc(C3=NC(C)(C)CO3)c2Br)=N1", "GI50": "> 100 µM (inactive)"}
{"COMPOUND": "O=C1O/C(=C\\c2ccc(O)c(Br)c2)C(c2ccc(O)c(Cl)c2)=C1Br", "GI50": "37.3 µM (inactive)"}
{"COMPOUND": "COc1cccc(CN(C(=O)/C=C\\Sc2ccccc2)C(C)(C)C)c1", "GI50": "> 100 µM (inactive)"}
{"COMPOUND": "C=C1CC23CCC4C(C)(C(=O)O)CCCC4(C)C2CCC1C3 (stereo unspecified)", "GI50": "25.9 µM (inactive)"}
{"COMPOUND": "COc1cc(/C=C/C(=O)Oc2ccccc2)ccc1C(=O)O/C=C/c1ccccc1", "GI50": "> 100 µM (inactive)"}
{"COMPOUND": "CC(=O)c1c(-c2ccco2)c(C#N)c(=S)n(C2OC(CO)C(O)C(O)C2O)c1-c1ccccc1 (stereo unspecified)", "GI50": "> 100 µM (inactive)"}
{"COMPOUND": "CC(C)(C)[Si](C)(C)Oc1cc(CO)cc2c1cc(=N)o[n+]2[O-]", "GI50": "> 10 µM (inactive)"}
{"COMPOUND": "O=P1(Oc2ccccc2)N(CCCl)CCN1c1ccccc1 (stereo unspecified)", "GI50": "95.7 µM (inactive)"}
{"COMPOUND": "O=C(N/C(=C\\NC1=NCCS1)C(=O)N1CSC[C@@H]1C(=O)O)c1ccccc1", "GI50": "> 100 µM (inactive)"}
{"COMPOUND": "CC(=O)OCc1cncn1S(=O)(=O)c1ccc(C)cc1", "GI50": "> 100 µM (inactive)"}
{"COMPOUND": "COc1ccc(-c2nc3cc(C(F)(F)F)ccc3n2CC2CCCN3CCCCC23)cc1 (stereo unspecified)", "GI50": "14.3 µM (inactive)"}
{"COMPOUND": "N#Cc1c(N2CCCC2)ncn(Cc2ccccc2)c1=S", "GI50": "> 88.3 µM (inactive)"}
{"COMPOUND": "C=CCSC1=N/C(=C\\c2ccc(Cl)cc2)C(=O)N1CC=C", "GI50": "30.2 µM (inactive)"}
{"COMPOUND": "CCc1ccc(CCC(=O)O)nc1", "GI50": "> 100 µM (inactive)"}
{"COMPOUND": "c1ccc2c(c1)nc1n2CCNC1", "GI50": "> 100 µM (inactive)"}
{"COMPOUND": "CC1(c2nc3cc(Cl)c(Cl)cc3[nH]2)CCC(C(=O)O)C(C)(C)O1 (stereo unspecified)", "GI50": "> 100 µM (inactive)"}
{"COMPOUND": "Cc1cnc2nc(-c3cccc4ccccc34)cc(O)c2c1", "GI50": "0.00493 µM (active)"}
{"COMPOUND": "O=C1C=C(NCC(c2ccccc2)c2ccccc2)C(=O)c2ncccc21", "GI50": "2.67 µM (inactive)"}
{"COMPOUND": "C=CC(OC(C)=O)c1ccc(OC(=O)C(C)C)c(OC)c1 (stereo unspecified)", "GI50": "4.72 µM (inactive)"}
{"COMPOUND": "Cc1ccc(C2SC(=N)Nc3c2c(C)nn3C(=O)c2ccccc2O)cc1 (stereo unspecified)", "GI50": "> 10 µM (inactive)"}
